B1: 1ZHC (parent)
chain: HEFRDEISVLKANNPHFDKIFEKHNQLDDDIKTAEQQNASDAEVSHMKKQKLKLKDEIHSMIIEYREK

Variants of: B1
Test: folding stability dG (cDNA display proteolysis); higher = more stable
Details: PBS, room temperature
reportedProperty: folding stability dG (kcal/mol)
Give the number; kcal/mol is assumed, so skip it.

The measured folding stability dG associated with HEFRDEISVLKANNPHFDNIFEKHNQLDDDIKTAEQQNASDAEVSHMKKQKLKLKDEIHSMIIEYREK reads 0.558

In plain terms, HEFRDEISVLKANNPHFDKIFEKHNQLDDDIKTAEQVNASDAEVSHMKKQKLKLKDEIHSMIIEYREK has a documented folding stability dG of 0.447

Measured folding stability dG, HEFRDEISVLKANNPHFDKIFEKHNQLDDDIKTAEQQNASDAEVSHMKKQKLKLHDEIHSMIIEYREK : 1.27

// sample HEFRDEISVLKANNTHFDKIFEKHNQLDDDIKTAEQQNASDAEVSHMKKQKLKLKDEIHSMIIEYREK , its folding stability dG was 0.292

Short answer for HEFRDEISVLKANNPHFDKIFEKHNQLDDDIKTAEQQNASSAEVSHMKKQKLKLKDEIHSMIIEYREK : folding stability dG was 1.03

The recorded folding stability dG for HEFRDEISVLKANNPHFDKIFEKHNQLDDDIKTAEQQNASDKEVSHMKKQKLKLKDEIHSMIIEYREK is 0.633

// sample HEFRDEISVLKANNPHFDKIFEKHNQLDDDIKTAEQQNASDGEVSHMKKQKLKLKDEIHSMIIEYREK , its folding stability dG was 0.074

Value of folding stability dG reported for the variant HEFRDEISVLKANNPHFDKIFEKHNQLDDDIKTAEQQNASDAEVSHMFKQKLKLKDEIHSMIIEYREK is 0.266

Reported folding stability dG ( HEFRDEISVLKANNPHFDKIFEKHNQLDDDIKTAEQQNASDAEVSFMKKQKLKLKDEIHSMIIEYREK ) = 1.02

Value of measured folding stability dG for the entry HEFRDEISVLKANNPHFDKIFEKHNQLDDDIKTAEQQNASDAEVSHMKKQKLKLTDEIHSMIIEYREK : 0.273

For reference, reported folding stability dG for HSFRDEISVLKANNPHFDKIFEKHNQLDDDIKTAEQQNASDAEVSHMKKQKLKLKDEIHSMIIEYREK stands at 0.328

folding stability dG recorded for this variant, HEFRDEISVLKANNPHFDKIFEKHNQLDDDIKTAEQQNATDAEVSHMKKQKLKLKDEIHSMIIEYREK , is -0.074

Input HEFRDGISVLKANNPHFDKIFEKHNQLDDDIKTAEQQNASDAEVSHMKKQKLKLKDEIHSMIIEYREK . Output folding stability dG: -0.608

According to the records, this variant HEFRDEISVLKANNDHFDKIFEKHNQLDDDIKTAEQQNASDAEVSHMKKQKLKLKDEIHSMIIEYREK displays folding stability dG of 0.108

The value of folding stability dG measured for the variant HEFRDEISVLKCNNPHFDKIFEKHNQLDDDIKTAEQQNASDAEVSHMKKQKLKLKDEIHSMIIEYREK turned out to be 1.42

HEFRDEISVLKANNPHFDKIFEKHNQLDDDIKTAEQQNASDAEVSHMKKQKLKLKDEIHSMIQEYREK has a reported folding stability dG of 1.12

Sample HEFRDEISVLKANNPHFDKIFEKHNQLDDDIKTAEQQNASDAEVSHMKKQKLKLKDEIHSMIIEYWEK ; folding stability dG observed: 0.163

folding stability dG measured on HEFRDEISVLKANNPHFDKIFEKHNQLDDDIKTAEQQNASDAEVSHMKKQKLKLKDEIHDMIIEYREK = 0.536

Data point: HEFRDEISVLKGNNPHFDKIFEKHNQLDDDIKTAEQQNASDAEVSHMKKQKLKLKDEIHSMIIEYREK ; folding stability dG = 0.257

Record HEFRDEISVLKANNPHFDKIFEKHNQLDDDIKTAEQQNASFAEVSHMKKQKLKLKDEIHSMIIEYREK . Reported folding stability dG: 0.919

Reported folding stability dG for HEFRDEISVLMANNPHFDKIFEKHNQLDDDIKTAEQQNASDAEVSHMKKQKLKLKDEIHSMIIEYREK was 0.616

What the record says about HEFRDEISVLKANNPHFYKIFEKHNQLDDDIKTAEQQNASDAEVSHMKKQKLKLKDEIHSMIIEYREK : folding stability dG is 1.95

Cited source: the MegaScale stability set (Tsuboyama et al. 2023)
